Source listed as ChEMBL document CHEMBL5532639.

Kindly state MIC for each of the entries shown.
- System: Staphylococcus haemolyticus
- assay-notes: Antibacterial activity against Staphylococcus haemolyticus clinical isolates assessed as bacterial growth inhibition measured after 16 to 24 hrs by broth microdilution assay
- Format: functional
- condition-context: time 16-24 hrs
Please reply with the bare figure in µg/mL and do not write the unit itself.

So what does the record say about MIC for Clc1ccc(C(Cc2ccccc2)c2c(Cl)nc(N3CCNCC3)nc2Cl)cc1 (centres undefined) ?
100

So what does the record say about MIC for Clc1ccc(C(Cc2ccccc2)c2c(Cl)nc(Cl)nc2Cl)cc1 (centres undefined) ?
100

So what does the record say about MIC for Nc1nc(Cl)c(C(Cc2ccccc2)c2ccc(Cl)cc2)c(Cl)n1 (centres undefined) ?
100

So what does the record say about MIC for Clc1ccc(C(Cc2cccc(Cl)c2)c2c(Cl)nc(N3CCNCC3)nc2Cl)cc1 (centres undefined) ?
50
